Molecular target: mGluR5 (Rattus norvegicus)
Construct: The procedure allows the expression of the mGluR5 receptor by astrocytes; endogenous in cells
Sequence (P31424 21-1203): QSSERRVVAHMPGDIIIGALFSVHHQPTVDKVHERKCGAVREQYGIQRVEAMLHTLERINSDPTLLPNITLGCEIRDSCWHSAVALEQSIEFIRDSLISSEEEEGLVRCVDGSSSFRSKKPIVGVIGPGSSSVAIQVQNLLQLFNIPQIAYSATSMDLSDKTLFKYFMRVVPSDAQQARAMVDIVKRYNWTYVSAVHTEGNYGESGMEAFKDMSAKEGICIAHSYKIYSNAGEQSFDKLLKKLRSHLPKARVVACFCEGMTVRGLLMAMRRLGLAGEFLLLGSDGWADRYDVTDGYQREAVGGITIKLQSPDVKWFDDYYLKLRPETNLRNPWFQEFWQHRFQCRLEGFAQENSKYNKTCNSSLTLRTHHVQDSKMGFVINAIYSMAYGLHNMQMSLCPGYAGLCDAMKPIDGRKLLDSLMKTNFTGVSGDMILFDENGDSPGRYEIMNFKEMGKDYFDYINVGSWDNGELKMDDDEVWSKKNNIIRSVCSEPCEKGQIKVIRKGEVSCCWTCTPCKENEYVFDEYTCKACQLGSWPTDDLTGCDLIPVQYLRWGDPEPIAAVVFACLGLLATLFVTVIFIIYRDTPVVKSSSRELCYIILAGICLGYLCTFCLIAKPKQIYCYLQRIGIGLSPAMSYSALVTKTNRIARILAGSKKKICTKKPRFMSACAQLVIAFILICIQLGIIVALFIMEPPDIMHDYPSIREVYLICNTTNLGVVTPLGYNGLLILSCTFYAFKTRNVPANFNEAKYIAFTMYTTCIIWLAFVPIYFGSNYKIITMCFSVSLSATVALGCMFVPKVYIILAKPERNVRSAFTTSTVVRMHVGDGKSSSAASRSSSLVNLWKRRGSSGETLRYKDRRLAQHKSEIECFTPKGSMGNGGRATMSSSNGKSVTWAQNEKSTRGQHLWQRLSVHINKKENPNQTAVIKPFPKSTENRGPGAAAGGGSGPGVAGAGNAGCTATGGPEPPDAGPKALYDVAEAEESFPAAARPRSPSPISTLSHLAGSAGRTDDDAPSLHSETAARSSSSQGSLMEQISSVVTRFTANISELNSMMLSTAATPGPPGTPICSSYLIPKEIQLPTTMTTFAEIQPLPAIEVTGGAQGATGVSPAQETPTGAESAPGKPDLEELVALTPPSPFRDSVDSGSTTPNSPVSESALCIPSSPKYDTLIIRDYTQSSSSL
Experiment: mGluR5 calcium mobilization flux assay in primary astrocytes (Fluo-4, Fluorometric Imaging Plate reader)
Conditions: astrocytes expressing mGluR5; calcium mobilization flux with glutamate (final 10 mM); mean of 5 experiments
measuredParameter: pIC50
Remember the convention: pIC50 equals -log10 of concentration in molar.

Identify measured pIC50 obtained with mGluR5 (Rattus norvegicus) for O=C(C#Cc1ccccc1)N1CCN(c2ncccn2)CC1 [Compound AAA(IIa)] .
6.26

Source listed as patent US20040127501A1.
